Tested on: BDF1 mice, P388 leukemia ip, median survival T/C
Assay: NCI In Vivo Anticancer Drug Screen. Data for tumor model P388 Leukemia (intraperitoneal) in B6D2F1 (BDF1) mice
Details: endpoint: median survival time; dose: 400.0 mg/kg/injection; schedule: Q01DX009 (ip); vehicle: saline with Tween-80; higher = longer survival
Inconclusive results and toxic doses are left out.
QUANTITY: T/C

compound=COc1ccc(N=C2C(=O)Nc3ccc(Br)cc32)cc1 tgt="BDF1 mice, P388 leukemia ip, median survival T/C" reported="104 % of control"
compound=O=C(O)c1ccccc1C(=O)NNC(=O)c1ccccc1C(=O)O tgt="BDF1 mice, P388 leukemia ip, median survival T/C" reported="90 % of control"
compound=COc1ccc2c(c1)CC[C@@H]1[C@@H]2CC[C@]2(C)/C(=N\O)CC[C@@H]12 tgt="BDF1 mice, P388 leukemia ip, median survival T/C" reported="90 % of control"
compound=CCOc1nc(=O)n(CC(=O)c2ccc(Cl)s2)cc1F tgt="BDF1 mice, P388 leukemia ip, median survival T/C" reported="87 % of control"
compound=CCCCCCCCCCCSCCCCCCCCCCC tgt="BDF1 mice, P388 leukemia ip, median survival T/C" reported="100 % of control"
compound=CCOC(=O)C(CCCCC(NC(C)=O)(C(=O)OCC)C(=O)OCC)(NC(C)=O)C(=O)OCC tgt="BDF1 mice, P388 leukemia ip, median survival T/C" reported="104 % of control"
compound=O=C(Cn1ccc(=O)[nH]c1=O)c1cccs1 tgt="BDF1 mice, P388 leukemia ip, median survival T/C" reported="100 % of control"
compound=CCCN1CSC(=S)N(Cc2ccccc2)C1 tgt="BDF1 mice, P388 leukemia ip, median survival T/C" reported="90 % of control"
compound="CS(=O)(=O)OCC(OS(C)(=O)=O)C(COS(C)(=O)=O)OS(C)(=O)=O (stereo unspecified)" tgt="BDF1 mice, P388 leukemia ip, median survival T/C" reported="88 % of control"
compound="NC(CC(=O)O)c1nn[nH]n1 (stereo unspecified)" tgt="BDF1 mice, P388 leukemia ip, median survival T/C" reported="100 % of control"
compound=Cc1ccc(-n2c(O)c(C=N)c(=O)n(-c3ccc(C)cc3)c2=O)cc1 tgt="BDF1 mice, P388 leukemia ip, median survival T/C" reported="95 % of control"

----------
Test system: BDF1 mice, P388 leukemia ip, median survival T/C
Experiment: NCI In Vivo Anticancer Drug Screen. Data for tumor model P388 Leukemia (intraperitoneal) in B6D2F1 (BDF1) mice
Conditions: endpoint: median survival time; dose: 100.0 mg/kg/injection; schedule: Q01DX009 (ip); vehicle: saline; higher = longer survival
Toxic doses and inconclusive results are not listed.
QUANTITY: T/C

molecule=C[C@]12CC[C@H]3C(=CCc4cc(O)ccc43)[C@@H]1C/C(=N\O)C2=O reported="90 % of control"
molecule="CCCCSCC(N)C(=O)OC (centres undefined)" reported="103 % of control"
molecule="COc1cc2c(cc1OCc1ccccc1)C(C#N)N(C(=O)c1ccccc1)C=C2 (centres undefined)" reported="97 % of control"
molecule=O=C(O)c1ccccc1Oc1ccccc1C(=O)O reported="100 % of control"
molecule=CCC(=O)NC reported="122 % of control"
molecule=Oc1cc(O)c(CN(CCCl)CCCl)cc1CN(CCCl)CCCl reported="86 % of control"
molecule="NC(Cc1ccc([N+](=O)[O-])cc1)C(=O)O (centres undefined)" reported="100 % of control"
molecule=Nc1cc(Cl)ccc1O reported="97 % of control"
molecule="CC1(O)CCC2C3CCC4CC(=O)CCC4(C)C3(F)C(O)CC21C (centres undefined)" reported="90 % of control"

----------
Tested on: BDF1 mice, P388 leukemia ip, median survival T/C
Test: NCI In Vivo Anticancer Drug Screen. Data for tumor model P388 Leukemia (intraperitoneal) in B6D2F1 (BDF1) mice
Settings: endpoint: median survival time; dose: 25.0 mg/kg/injection; schedule: Q01DX009 (ip); vehicle: Klucel (hydroxypropylcellulose) (HPC)
Inconclusive results and toxic doses are left out. How the source made its calls: active means survival T/C of 150% or more; inactive means T/C below 125% in these data.
Possible outcomes: label 1 for active, label 0 for inactive

molecule=CN(C)C=Nc1ccc2c3c(cccc13)CC2 tgt="BDF1 mice, P388 leukemia ip, median survival T/C" class="label 0"
molecule=Clc1nc(Cl)nc(-c2cccn2-c2ccccc2)n1 tgt="BDF1 mice, P388 leukemia ip, median survival T/C" class="label 0"
molecule=NC(N)=N/N=C/c1ccc(Cl)c(Cl)c1 tgt="BDF1 mice, P388 leukemia ip, median survival T/C" class="label 0"
molecule=O=C1NC(=O)C2(CCCCC2)N1 tgt="BDF1 mice, P388 leukemia ip, median survival T/C" class="label 0"
molecule="NC(CO)Cc1ccccc1 (centres undefined)" tgt="BDF1 mice, P388 leukemia ip, median survival T/C" class="label 0"
molecule="CC(C)(C)C(O)CC(C)(O)C(C)(C)C (centres undefined)" tgt="BDF1 mice, P388 leukemia ip, median survival T/C" class="label 0"
molecule=CNC(=N)c1ccc(NC(=N)c2ccc(NC(=O)Nc3ccc(NC(=O)Nc4ccc(C(=N)Nc5ccc(C(=N)NC)cc5)cc4)cc3)cc2)cc1 tgt="BDF1 mice, P388 leukemia ip, median survival T/C" class="label 1"
molecule=CCO/C=C1\SC(=S)N(c2ccccc2C)C1=O tgt="BDF1 mice, P388 leukemia ip, median survival T/C" class="label 0"
molecule=OCC1(c2ccccc2)CCN(Cc2ccccc2)CC1 tgt="BDF1 mice, P388 leukemia ip, median survival T/C" class="label 0"
molecule=CCN(CC)CCNc1ccc(N=Nc2ccc(SC)cc2)c2ccccc12 tgt="BDF1 mice, P388 leukemia ip, median survival T/C" class="label 0"
molecule=O=C1CN(CN2CCCCC2)C(=O)CN1CN1CCCCC1 tgt="BDF1 mice, P388 leukemia ip, median survival T/C" class="label 0"
molecule="CC(O)C#CC(C)O (centres undefined)" tgt="BDF1 mice, P388 leukemia ip, median survival T/C" class="label 0"
molecule=O=NN(CCF)C(=O)NC12CC3CC(CC(C3)C1)C2 tgt="BDF1 mice, P388 leukemia ip, median survival T/C" class="label 1"
molecule=CSc1cccc(NC(=O)Nc2onc(C)c2C)c1 tgt="BDF1 mice, P388 leukemia ip, median survival T/C" class="label 0"

----------
Test system: BDF1 mice, P388 leukemia ip, median survival T/C
Assay: NCI In Vivo Anticancer Drug Screen. Data for tumor model P388 Leukemia (intraperitoneal) in B6D2F1 (BDF1) mice
Details: endpoint: median survival time; dose: 200.0 mg/kg/injection; schedule: Q04DX003 (ip); vehicle: saline with Tween-80; higher = longer survival
Toxic doses and inconclusive results are not listed.
Entries annotated with measured T/C
QUANTITY: T/C

molecule=CCCNC(=O)Nc1ccc(C)cc1C reported="95 % of control"
molecule=N#CC(C#N)c1nc2cccnc2s1 reported="93 % of control"
molecule="OC(OCCCCCCOC(O)C(Cl)(Cl)Cl)C(Cl)(Cl)Cl (stereo unspecified)" reported="95 % of control"
molecule=CS(=O)(=O)OC[C@H](OS(=O)(=O)O)[C@H](COS(C)(=O)=O)OS(=O)(=O)O reported="110 % of control"
molecule="COC(=O)C12N=NN(c3ccccc3)C1(C(=O)OC)C1CCC2C1 (stereo unspecified)" reported="100 % of control"
molecule="CC(C)=CCCC(C)C/C=N\\O (stereo unspecified)" reported="113 % of control"
molecule=O=C(OCCCl)c1ccc(Cl)cc1 reported="94 % of control"
molecule="O=C1c2ccccc2CCC12OC2c1ccc(Cl)cc1 (stereo unspecified)" reported="104 % of control"
molecule="COC(=O)C(CSCSC)NC(=O)/C=C\\c1ccccc1 (stereo unspecified)" reported="91 % of control"
molecule=NC(=O)c1ncc[nH]c1=O reported="105 % of control"
molecule=O=P(Oc1cccc2ccccc12)(N1CC1)N1CC1 reported="150 % of control"
molecule=CCCCCCCCCCCCCCCCCCNC(=S)N/N=C/c1ccc(Cl)cc1Cl reported="100 % of control"
molecule=CC(C)CCS(=O)(=O)OCCCCOS(=O)(=O)CCC(C)C reported="100 % of control"
molecule=Cc1cc(C)c(NC(=O)c2ccccc2Cl)c(C)c1 reported="109 % of control"
molecule=COC(OC)c1nc(SC)[nH]c(=O)c1C reported="100 % of control"
molecule=Cc1ccc(C)c(NC(=O)c2cccc(Cl)c2)c1 reported="100 % of control"
molecule="CCOC(C)C(/C=N/NC(N)=S)=NNC(N)=S (stereo unspecified)" reported="91 % of control"
molecule=O=C(Nc1ccc2c(c1)OCO2)O/N=C\c1ccccn1 reported="95 % of control"
molecule=COc1ccc2[nH]c(=S)[nH]c(=S)c2c1 reported="91 % of control"
molecule=COc1ccccc1NC(=O)Nc1cccc(Cl)c1 reported="104 % of control"
molecule=Cc1cc(N(CCCl)CCCl)ccc1C=Nc1cccc(Cl)c1 reported="118 % of control"
molecule=O=C(Nc1ccc(C2=NCCN2)cc1)c1ccc(C(=O)Nc2ccc(C3=NCCN3)cc2)c(F)c1 reported="213 % of control"
molecule=CCN(CC)c1c(C)nnc2c(-c3ccccc3)cnn12 reported="104 % of control"
molecule=O=C1c2cc(Cl)ccc2-c2c(NC(=O)C(Cl)Cl)cc(Cl)cc21 reported="113 % of control"
molecule=COC(=O)c1ccccc1NCCCC(=O)O reported="108 % of control"
molecule=Cc1cc(=O)[nH]c(N(CCO)CCO)n1 reported="95 % of control"
molecule=Cc1ccc(C(=O)Cl)cc1S(=O)(=O)F reported="101 % of control"
molecule=CC1(C)N=C(N)N=C(N)N1c1ccc(OCCOc2ccc(S(=O)(=O)F)cc2)c(Cl)c1 reported="108 % of control"
molecule=O=C1/C(=C/c2ccccc2)Cc2ccccc21 reported="100 % of control"
molecule=Nc1nc(SCC(=O)c2ccccc2)c2[nH]cnc2n1 reported="113 % of control"
molecule=O=[N+]([O-])c1ccc(Cl)c2c([N+](=O)[O-])cccc12 reported="109 % of control"
molecule=CC(Cl)(Cl)CC(O)(C(F)(F)F)C(F)(F)F reported="90 % of control"
molecule=CC(=O)Oc1ccc(C2C3=C(COC3=O)CC3=C2C(=O)OC3)cc1 reported="110 % of control"
molecule="COC(=O)NC1CCCCC1I (stereo unspecified)" reported="100 % of control"
molecule=COc1ccccc1NC(=S)N(C)C reported="104 % of control"
molecule=CCN(CC)CCN1C(=O)CN=C(c2ccccn2)c2cc(Cl)ccc21 reported="105 % of control"
molecule=NS(=O)(=O)c1ccc(NC(=O)/C=C/C(=O)O)cc1 reported="100 % of control"
molecule=CCN(C(=O)c1ccc(C(=O)N(CC)c2ccccc2)cc1)c1ccccc1 reported="91 % of control"
molecule=NC(=O)N/C=C1\CCCOC1=O reported="104 % of control"
molecule=CC(=O)OCC(CCn1ccc(=O)[nH]c1=O)COC(C)=O reported="98 % of control"
molecule=Cc1nc2c(=O)n(C)c(=O)n(C)c2n1C reported="100 % of control"
molecule=c1ccc(CCCSc2ccccc2)cc1 reported="113 % of control"
molecule=CCCN([Si](C)(C)C)[Si](C)(C)C reported="104 % of control"
molecule="CC1(CNC(=O)C(=O)NCC2(C)CO2)CO1 (stereo unspecified)" reported="183 % of control"
molecule=Cc1ccc(NC(=O)c2ccc([N+](=O)[O-])cc2)c(C)c1 reported="104 % of control"
molecule="CC(C#N)(Nc1ccccc1)c1ccccc1 (stereo unspecified)" reported="100 % of control"
molecule=Cc1nc([N+](=O)[O-])cn1CCC#N reported="99 % of control"
molecule=CCOC(=O)c1c[nH]c2c(OC)cccc2c1=O reported="98 % of control"
molecule=Cc1ccc(S(=O)(=O)N(C)c2ccc(C#N)c(Cl)c2Cl)cc1 reported="86 % of control"
molecule=CC1(C)N=C(N)N=C(N)N1c1ccc(CCCCc2ccc(S(=O)(=O)F)cc2Cl)c(Cl)c1 reported="272 % of control"
molecule=OCCN(CCO)c1cc(O)cc(O)c1 reported="120 % of control"

FYI, the data here is from PubChem BioAssay AID328.
